Every entry's value here was drawn from paper PMC4237513.

- System: dengue virus (DENV)
- Procedure Summary: microbe, parasite or virus in culture
- Format: cell-based
- Test Parameters: Dengue virus, Vero B, 168 h, read-out: Dengue EC50
Attribute Measured: EC50

Recorded results for 2 compounds are shown here.
compound="O=C(NCc1ccccc1-c1ccsc1)c1nc[nH]c1C(=O)Nc1ccc(F)cc1 [15d]" recorded_result="8.88 µM"
compound="Cc1ccc(NC(=O)c2nc[nH]c2C(=O)Nc2ccc(F)cc2)c(-c2cc(C)n[nH]2)c1 [15a]" recorded_result="2.5 µM"

Value lookup for EC50; key = Cc1ccc(NC(=O)c2nc[nH]c2C(=O)Nc2ccc(F)cc2)c(-c2ccco2)c1 [15i] > 124 µM

# iterate: O=C(NCc1ccc(-c2cccnc2)cc1)c1nc[nH]c1C(=O)Nc1ccc(F)cc1 [15e] 42.1 µM

# iterate: Cc1cc(-c2ccccc2NC(=O)c2nc[nH]c2C(=O)Nc2ccc(F)cc2)[nH]n1 [15b] 6.03 µM

# iterate: Cc1ccc(NC(=O)c2nc[nH]c2C(=O)Nc2ccccc2)c(-c2ccsc2)c1 [15j] > 124 µM

# iterate: Cc1ccc(NC(=O)c2[nH]cnc2C(=O)Nc2ccc(C)cc2-c2ccco2)cc1 [15l] 3.47 µM

# iterate: Cc1ccc(NC(=O)c2nc[nH]c2C(=O)Nc2ccc(F)cc2)c(-c2ccsc2)c1 [15h] 48.8 µM

# iterate: Cc1ccc(NC(=O)c2[nH]cnc2C(=O)Nc2ccc(C)cc2-c2ccsc2)cc1 [15k] 2.02 µM

###

- System: dengue virus (DENV)
- Procedure Summary: microbe, parasite or virus in culture
- Format: cell-based
- Test Parameters: read-out: Dengue EC50
Attribute Measured: pEC50
As a rule, pEC50 stands for the negative log10 of the concentration, concentration in M.

Value lookup for pEC50; key = O=C(NCc1ccccc1-c1ccncc1)c1nc[nH]c1C(=O)Nc1ccc(F)cc1 [15c] 5.71

###

- System: yellow fever virus (YFV)
- Procedure Summary: microbe, parasite or virus in culture
- Assay type: cell-based
- Test Parameters: Yellow fever virus, Vero B, 168 h, read-out: Yellow fever EC50
EC50 overview
Could you give me the number in µM? Just the number is fine.

Recorded results for 7 compounds are shown here.
compound="Cc1ccc(NC(=O)c2nccnc2C(=O)Nc2ccccc2-c2ccncc2)cc1 [20k]" recorded_result=12.5
compound="Cc1ccc(NC(=O)c2nc[nH]c2C(=O)Nc2ccccc2)c(-c2ccsc2)c1 [15j]" recorded_result=9.2
compound="O=C(NCc1ccccc1-c1ccncc1)c1nc[nH]c1C(=O)Nc1ccc(F)cc1 [15c]" recorded_result=3.9
compound="Cc1cc(-c2ccccc2NC(=O)c2nc[nH]c2C(=O)Nc2ccc(F)cc2)[nH]n1 [15b]" recorded_result=1.85
compound="O=C(NCc1ccc(-c2ccncc2)cc1)c1nccnc1C(=O)Nc1ccc(F)cc1 [20a]" recorded_result=7.49
compound="O=C(NCc1ccccc1-c1ccsc1)c1nc[nH]c1C(=O)Nc1ccc(F)cc1 [15d]" recorded_result=2.61
compound="O=C(NCc1ccc(-c2ccsc2)cc1)c1nc[nH]c1C(=O)Nc1ccc(F)cc1 [15f]" recorded_result=28.8

Read the next record carefully.
Value lookup for EC50; key = O=C(Nc1ccc(F)cc1)c1nccnc1C(=O)Nc1ccccc1-c1cccnc1 [20e] 47.5

###

- Test system: dengue virus (DENV)
- Procedure Summary: microbe, parasite or virus in culture
- Assay type: cell-based
- Test Parameters: Dengue virus, Vero B, 168 h, read-out: Dengue EC50
EC50 overview

Recorded results for 2 molecules are shown here.
molecule="O=C(NCc1ccc(-c2ccncc2)cc1)c1nc[nH]c1C(=O)Nc1ccc(F)cc1 [15g]" recorded_result="> 120 µM"
molecule="Cc1ccc(NC(=O)c2nccnc2C(=O)Nc2ccc(F)cc2)c(-c2ccncc2)c1 [20g]" recorded_result="> 117 µM"

Read the next record carefully.
Form field: EC50 recorded for Cc1ccc(NC(=O)c2nc[nH]c2C(=O)NCc2ccccc2)c(-c2ccco2)c1 [15m] with dengue virus (DENV) (enter value) > 125 µM

###

CC50 overview
- Procedure Summary: in vitro
- Test Parameters: chlorocebus sabaeus, Dengue CC50

Recorded results for 3 compounds are shown here.
compound="Cc1ccc(NC(=O)c2nc[nH]c2C(=O)Nc2ccccc2)c(-c2ccsc2)c1 [15j]" attribute_measured=CC50 recorded_result="> 124 µM"
compound="O=C(NCc1ccc(-c2cccnc2)cc1)c1nccnc1C(=O)Nc1ccc(F)cc1 [20c]" attribute_measured=CC50 recorded_result="> 115 µM"
compound="Cc1ccc(NC(=O)c2nccnc2C(=O)Nc2ccc(C)cc2-c2ccncc2)cc1 [20n]" attribute_measured=CC50 recorded_result="> 119 µM"

Value lookup for CC50; key = Cc1ccc(NC(=O)c2nccnc2C(=O)NCc2ccc(-c3cccnc3)cc2)cc1 [20j] > 116 µM

# iterate: O=C(NCc1ccc(-c2ccncc2)cc1)c1nccnc1C(=O)Nc1ccc(F)cc1 [20a] > 118 µM

###

- Test system: yellow fever virus (YFV)
- Procedure Summary: microbe, parasite or virus in culture
- Type: cell-based
- Test Parameters: Yellow fever virus, Vero B, 168 h, read-out: Yellow fever EC50
pEC50: −log10 of the molar value.
pEC50 overview

Value lookup for pEC50; key = Cc1ccc(NC(=O)c2nc[nH]c2C(=O)Nc2ccc(F)cc2)c(-c2ccsc2)c1 [15h] < 3.92

# iterate: Cc1ccc(NC(=O)c2nccnc2C(=O)Nc2ccccc2-c2cccnc2)cc1 [20l] < 3.91

# iterate: O=C(NCc1ccc(-c2ccncc2)cc1)c1nc[nH]c1C(=O)Nc1ccc(F)cc1 [15g] < 3.92

# iterate: Cc1cnc(NC(=O)c2[nH]cnc2C(=O)Nc2ccccc2)c(-c2ccc(C)s2)c1 [15o] < 3.92

###

- Procedure Summary: in vitro
- Test Parameters: chlorocebus sabaeus, Dengue CC50
Attribute Measured: CC50

Recorded results for 3 compounds are shown here.
compound="O=C(Nc1ccc(F)cc1)c1nccnc1C(=O)Nc1ccccc1-c1ccncc1 [20d]" attribute_measured=CC50 recorded_result="> 117 µM"
compound="Cc1ccc(NC(=O)c2[nH]cnc2C(=O)Nc2ccc(C)cc2-c2ccco2)cc1 [15l]" attribute_measured=CC50 recorded_result="> 125 µM"
compound="O=C(NCc1ccc(-c2ccncc2)cc1)c1nc[nH]c1C(=O)Nc1ccc(F)cc1 [15g]" attribute_measured=CC50 recorded_result="> 120 µM"

Value lookup for CC50; key = Cc1ccc(NC(=O)c2nccnc2C(=O)Nc2ccccc2-c2cccnc2)cc1 [20l] > 128 µM

# iterate: Cc1ccc(NC(=O)c2nc[nH]c2C(=O)Nc2ccc(F)cc2)c(-c2cc(C)n[nH]2)c1 [15a] > 120 µM

# iterate: Cc1ccc(NC(=O)c2nc[nH]c2C(=O)Nc2ccc(F)cc2)c(-c2ccsc2)c1 [15h] > 117 µM

# iterate: Cc1ccc(NC(=O)c2nc[nH]c2C(=O)NCc2ccccc2)c(-c2ccco2)c1 [15m] > 125 µM

# iterate: Cc1ccc(NC(=O)c2nccnc2C(=O)Nc2ccc(F)cc2)c(-c2cccnc2)c1 [20b] > 118 µM

# iterate: Cc1ccc(NC(=O)c2nccnc2C(=O)Nc2ccc(F)cc2)c(-c2ccncc2)c1 [20g] > 117 µM

# iterate: Cc1ccc(NC(=O)c2nc[nH]c2C(=O)Nc2ccc(F)cc2)c(-c2ccco2)c1 [15i] > 124 µM

# iterate: O=C(Nc1ccc(F)cc1)c1nccnc1C(=O)Nc1ccccc1-c1cccnc1 [20e] > 120 µM
